# credit: patent US20040132740A1

# measurement-notes: LD50 on mice
# setup-conditions: mouse, in vivo
Where a name gives a salt, the structure may show the parent alone.
experimental-endpoint: LD50 (mg/kg)

O=c1ccn(C2CC2)c2cc(N3CCNCC3)c(F)cc12 [Compound (A) HCl salt] | 28
